# SYSTEM: Serotonin 2 (5-HT2) receptor (Rattus norvegicus, UniProt P30994+P08909+P14842)
# PROCEDURE_SUMMARY: Compound was evaluated for its ability to displace [3H]ketanserin from serotonergic 5-hydroxytryptamine 2 receptor
# Type: protein assay
OUTCOME_MEASURE: Ki

• CCCCCCCCCN1CCC[C@@H]1CNC(=O)c1cc(Cl)cc2c1OCCN2C = > 1000 nM
• CCCCCCCCCN1CCC[C@H]1CNC(=O)c1cc(Cl)cc2c1OCCN2C = > 1000 nM

**Q:** What value of Ki has been reported for the following compound? CCCCN1CCC[C@@H]1CNC(=O)c1cc(S(N)(=O)=O)ccc1OC
**A:** > 1000 nM

**Q:** What value of Ki has been reported for the following compound? CCCCN1CCC[C@H]1CNC(=O)c1cc(S(N)(=O)=O)ccc1OC
**A:** > 1000 nM

**Q:** What value of Ki has been reported for the following compound? CCCCN1CCCC1CNC(=O)c1cc(S(N)(=O)=O)cc2c1OCCN2C (stereo unspecified)
**A:** 3000 nM

**Q:** What value of Ki has been reported for the following compound? CCCCN1CCCC1CNC(=O)c1cccc2c1OCCN2C (stereo unspecified)
**A:** 2200 nM

----------
# SYSTEM: D(2) dopamine receptor (Rattus norvegicus, UniProt P61169)
# Sequence (P61169 whole entry): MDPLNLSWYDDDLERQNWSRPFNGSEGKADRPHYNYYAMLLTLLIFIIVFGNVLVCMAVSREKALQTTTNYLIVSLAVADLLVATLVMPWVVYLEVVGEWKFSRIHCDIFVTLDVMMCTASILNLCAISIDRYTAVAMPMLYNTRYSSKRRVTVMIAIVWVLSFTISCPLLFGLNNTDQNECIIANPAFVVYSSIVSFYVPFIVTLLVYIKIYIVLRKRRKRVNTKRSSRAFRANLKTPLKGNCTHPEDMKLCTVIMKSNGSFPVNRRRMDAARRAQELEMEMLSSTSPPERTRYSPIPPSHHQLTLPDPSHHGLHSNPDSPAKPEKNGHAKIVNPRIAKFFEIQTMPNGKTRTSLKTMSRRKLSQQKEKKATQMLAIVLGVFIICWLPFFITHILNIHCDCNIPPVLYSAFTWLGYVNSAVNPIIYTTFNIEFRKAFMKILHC
# PROCEDURE_SUMMARY: Compound was evaluated for its ability to displace [3H]spiperone from D2 dopamine receptor isolated from the striata of male Wistar rats
OUTCOME_MEASURE: Ki (nM)

Examples with answers:
* CCCCN1CCCC1CNC(=O)c1cc(S(N)(=O)=O)cc2c1OCCN2C (stereo unspecified) | 670
* CCCCN1CCC[C@@H]1CNC(=O)c1cc(Cl)cc2c1OCCN2C | 630
* CCCCCCCCCN1CCC[C@H]1CNC(=O)c1cc(Cl)cc2c1OCCN2C | 750

a. CCCCCCCCCN1CCC[C@@H]1CNC(=O)c1cc(Cl)cc2c1OCCN2C
b. CCCCN1CCC[C@H]1CNC(=O)c1cc(Cl)cc2c1OCCN2C
c. CCCCN1CCCC1CNC(=O)c1cccc2c1OCCN2C (stereo unspecified)
**Q:** Task field, ranking: reported Ki, descending order. A ranking is expressed here by listing the labels in the requested order.
**A:** a, c, b

----------
# SYSTEM: D(2) dopamine receptor (Rattus norvegicus, UniProt P61169)
# PROCEDURE_SUMMARY: Ability to displace [3H]spiperone from D2 dopamine receptor isolated from the striata of male Wistar rats
OUTCOME_MEASURE: Ki (nM)

Examples with answers:
- CN1CCOc2c(C(=O)NC[C@@H]3CCCN3Cc3ccccc3)cc(Cl)cc21: 310
- CCN1CCC[C@H]1CNC(=O)c1cc(Cl)cc2c1OCCN2C: 16
- CN1CCOc2c(C(=O)NC[C@@H]3CCCN3CCc3ccccc3)cc(Cl)cc21: 800

A. CCCCCCCCCN1CCC[C@@H]1CNC(=O)c1cc(S(N)(=O)=O)ccc1OC
B. CN1CCOc2c(C(=O)NC[C@H]3CCCN3CCc3ccccc3)cc(Cl)cc21
**Q:** Could you tell me which of these two has the smaller Ki figure? First: A Second: B State the label of the item chosen.
**A:** B

----------
# SYSTEM: 5-hydroxytryptamine receptor 1A (Rattus norvegicus, UniProt P19327)
# Sequence (P19327 whole entry): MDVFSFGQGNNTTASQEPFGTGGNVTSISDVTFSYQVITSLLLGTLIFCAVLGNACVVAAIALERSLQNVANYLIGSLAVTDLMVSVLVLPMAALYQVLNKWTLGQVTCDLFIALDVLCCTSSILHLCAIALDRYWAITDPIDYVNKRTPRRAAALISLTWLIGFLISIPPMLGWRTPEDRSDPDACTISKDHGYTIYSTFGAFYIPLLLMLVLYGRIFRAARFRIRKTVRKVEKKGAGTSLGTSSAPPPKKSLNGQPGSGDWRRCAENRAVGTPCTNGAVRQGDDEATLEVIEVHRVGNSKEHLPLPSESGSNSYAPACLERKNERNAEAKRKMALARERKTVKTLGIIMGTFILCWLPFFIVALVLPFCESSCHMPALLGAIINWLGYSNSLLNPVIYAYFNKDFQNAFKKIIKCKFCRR
# PROCEDURE_SUMMARY: Ability to displace [3H]-8-OH-DPAT from serotonergic 5-hydroxytryptamine 1A receptor
pKi: −log10 of the molar value.
OUTCOME_MEASURE: pKi

• CCCCCCCCCN1CCC[C@@H]1CNC(=O)c1cc(Cl)cc2c1OCC(=O)N2C = < 6.00

**Q:** What value of pKi has been reported for the following molecule? CSc1cc(C(=O)NC[C@@H]2CCCN2Cc2ccccc2)c2c(c1)N(C)CCO2
**A:** 6.06

**Q:** What value of pKi has been reported for the following molecule? CCN1CCC[C@H]1CNC(=O)c1cc(Cl)cc2c1OCC(=O)N2C
**A:** < 6.00

----------
# SYSTEM: Serotonin 2 (5-HT2) receptor (Rattus norvegicus, UniProt P30994+P08909+P14842)
# PROCEDURE_SUMMARY: Ability to displace [3H]ketanserin from serotonergic 5-hydroxytryptamine 2 receptor
# Format: protein assay
OUTCOME_MEASURE: Ki (nM)

• CN1CCOc2c(C(=O)NC[C@H]3CCCN3Cc3ccccc3)cc(Cl)cc21 = 99

a. CCCCN1CCC[C@H]1CNC(=O)c1cc(SC)cc2c1OCCN2C
b. CSc1cc(C(=O)NC[C@@H]2CCCN2Cc2ccccc2)c2c(c1)N(C)CCO2
**Q:** Could you tell me which of these two has the smaller Ki figure? First: a Second: b State the label of the item chosen.
**A:** b

1. CCCCCCCCCN1CCC[C@H]1CNC(=O)c1cc(S(N)(=O)=O)ccc1OC
2. CCCCCCCCCN1CCC[C@@H]1CNC(=O)c1cc(S(N)(=O)=O)ccc1OC
**Q:** Could you tell me which of these two has the smaller Ki figure? First: 1 Second: 2 State the label of the item chosen.
**A:** 1

1. CCCCN1CCC[C@@H]1CNC(=O)c1cc(Cl)cc2c1OCC2
2. CN1CCOc2c(C(=O)NC[C@H]3CCCN3CCc3ccccc3)cc(Cl)cc21
3. CCCCN1CCC[C@@H]1CNC(=O)c1cc(SC)cc2c1OCCN2C
4. CCCCN1CCC[C@H]1CNC(=O)c1cc(Cl)cc2c1OCC2
**Q:** Task field, ranking: reported Ki, descending order. A ranking is expressed here by listing the labels in the requested order.
**A:** 4, 2, 1, 3
(4: 3300 nM, 2: 1700 nM, 1: 400 nM, 3: 22 nM)

A. CN1CCOc2c(C(=O)NC[C@@H]3CCCN3Cc3ccccc3)cc(Cl)cc21
B. CSc1cc(C(=O)NC[C@H]2CCCN2Cc2ccccc2)c2c(c1)N(C)CCO2
**Q:** Larger number for Ki: A , or B ? State the label of the item chosen.
**A:** A

----------
# SYSTEM: D(2) dopamine receptor (Rattus norvegicus, UniProt P61169)
# PROCEDURE_SUMMARY: Ability to displace [3H]spiperone from D2 dopamine receptor isolated from the striata of male Wistar rats
The compounds listed here are annotated with their Ki.

Examples with answers:
* CSc1cc(C(=O)NC[C@@H]2CCCN2Cc2ccccc2)c2c(c1)N(C)CCO2 | 270 nM
* CCCCN1CCC[C@H]1CNC(=O)c1cc(SC)cc2c1OCCN2C | 3.6 nM
* CCN1CCC[C@H]1CNC(=O)c1cc(Cl)cc2c1OCC(=O)N2C | > 1000 nM
* CCN1CCC[C@@H]1CNC(=O)c1cc(Cl)cc2c1OCC(=O)N2C | > 1000 nM
* CCCCCCCCCN1CCC[C@@H]1CNC(=O)c1cc(Cl)cc2c1OCC(=O)N2C | > 1000 nM

**Q:** What value of Ki has been reported for the following compound? CCN1CCC[C@@H]1CNC(=O)c1cc(Cl)cc2c1OCC2
**A:** > 1000 nM

**Q:** What value of Ki has been reported for the following compound? CCCCCCCCCN1CCC[C@H]1CNC(=O)c1cc(Cl)cc2c1OCC2
**A:** > 1000 nM

**Q:** What value of Ki has been reported for the following compound? CCCCCCCCCN1CCC[C@H]1CNC(=O)c1cc(Cl)cc2c1OCC(=O)N2C
**A:** > 1000 nM

**Q:** What value of Ki has been reported for the following compound? CCN1CCC[C@@H]1CNC(=O)c1cc(Cl)cc2c1OCCN2C
**A:** > 1000 nM

**Q:** What value of Ki has been reported for the following compound? CCCCCCCCCN1CCC[C@H]1CNC(=O)c1cc(S(N)(=O)=O)ccc1OC
**A:** 180 nM

----------
# SYSTEM: 5-hydroxytryptamine receptor 1A (Rattus norvegicus, UniProt P19327)
# PROCEDURE_SUMMARY: Ability to displace [3H]-8-OH-DPAT from serotonergic 5-hydroxytryptamine 1A receptor
OUTCOME_MEASURE: Ki (nM)

- CCCCCCCCCN1CCC[C@H]1CNC(=O)c1cc(Cl)cc2c1OCC2: 570
- CCCCCCCCCN1CCC[C@H]1CNC(=O)c1cc(S(N)(=O)=O)ccc1OC: 81
- CCCCCCCCCN1CCC[C@@H]1CNC(=O)c1cc(Cl)cc2c1OCC2: 330
- CN1CCOc2c(C(=O)NC[C@@H]3CCCN3Cc3ccccc3)cc(Cl)cc21: 220

P. CCCCN1CCC[C@@H]1CNC(=O)c1cc(Cl)cc2c1OCC2
Q. CN1CCOc2c(C(=O)NC[C@H]3CCCN3Cc3ccccc3)cc(Cl)cc21
**Q:** Could you tell me which of these two has the smaller Ki figure? First: P Second: Q State the label of the item chosen.
**A:** Q
(Q: 21 nM, P: 330 nM)

a. CCCCCCCCCN1CCC[C@@H]1CNC(=O)c1cc(S(N)(=O)=O)ccc1OC
b. CCCCN1CCC[C@@H]1CNC(=O)c1cc(SC)cc2c1OCCN2C
c. CN1CCOc2c(C(=O)NC[C@@H]3CCCN3CCc3ccccc3)cc(Cl)cc21
**Q:** Reorder the items by Ki, least to greatest. A ranking is expressed here by listing the labels in the requested order.
**A:** c, a, b
(c: 10 nM, a: 16 nM, b: 120 nM)
